- Test system: SiHa (Cervical Carcinoma);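 further: after 72 h of two-drug dosing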
- assay_method_text: Bliss excess, mean over the matrix (fraction); higher = more synergy
test_readout: Bliss excess
Answers are plain numbers.

Reference set, count: 5
[
  {
    "molecule": "CN(CCO)CC[C@H](CSc1ccccc1)Nc1ccc(S(=O)(=O)NC(=O)c2ccc(N3CCC([C@@H](O)c4ccccc4-c4ccc(Cl)cc4)CC3)cc2)cc1S(=O)(=O)C(F)(F)F [AZD4320] + C=CCn1c(=O)c2cnc(Nc3ccc(N4CCN(C)CC4)cc3)nc2n1-c1cccc(C(C)(C)O)n1 [AZD1775] (first compound max 1 µM, partner max 1 µM)",
    "assay_value": -0.0358
  },
  {
    "molecule": "C[C@@H](c1ccc2nccn2c1)n1nnc2ncc(-c3cnn(C)c3)nc21 [Savolitinib] + CC1(C)CCC(CN2CCN(c3ccc(C(=O)NS(=O)(=O)c4ccc(NCC5CCOCC5)c([N+](=O)[O-])c4)c(Oc4cnc5[nH]ccc5c4)c3)CC2)=C(c2ccc(Cl)cc2)C1 [Venetoclax] (first compound max 1 µM, 7x7, partner max 1 µM)",
    "assay_value": -0.0536
  },
  {
    "molecule": "CC1(C)CCC(CN2CCN(c3ccc(C(=O)NS(=O)(=O)c4ccc(NCC5CCOCC5)c([N+](=O)[O-])c4)c(Oc4cnc5[nH]ccc5c4)c3)CC2)=C(c2ccc(Cl)cc2)C1 [Venetoclax] + C1CN(CCC1(C(=O)N[C@@H](CCO)C2=CC=C(C=C2)Cl)N)C3=NC=NC4=C3C=CN4 [Capivasertib] (first compound max 1 µM, 7x7, partner max 3 µM)",
    "assay_value": -0.002
  },
  {
    "molecule": "CCN(CCO)CCCOc1ccc2c(Nc3cc(CC(=O)Nc4cccc(F)c4)[nH]n3)ncnc2c1 [AZD2811] + C=CCn1c(=O)c2cnc(Nc3ccc(N4CCN(C)CC4)cc3)nc2n1-c1cccc(C(C)(C)O)n1 [AZD1775] (first compound max 1 µM, partner max 1 µM)",
    "assay_value": 0.0089
  },
  {
    "molecule": "CN(C)CCCOc1ccc(-c2ccc3ncc4c(c3c2)n(C2CCOCC2)c(=O)n4C)cn1 [AZD0156] + C=CCn1c(=O)c2cnc(Nc3ccc(N4CCN(C)CC4)cc3)nc2n1-c1cccc(C(C)(C)O)n1 [AZD1775] (first compound max 1 µM, partner max 1 µM)",
    "assay_value": -0.0334
  }
]

The record that follows has no Bliss excess shown yet.
Input Cc1c2c(nn1C)CSCc1cc(n(C)n1)CSc1cc(c3ccccc3c1)OCCCc1c(C(=O)O)n(C)c3c-2c(Cl)ccc13 [AZD5991] + C[C@@H](Nc1cc(F)cc(F)c1)c1cc(C(=O)N(C)C)cc2c(=O)cc(N3CCOCC3)oc12 [AZD8186] (first compound max 1 µM, 7x7, partner max 3 µM) . Output Bliss excess: 0.0044
